method_description: yeast display, Sf9 membrane polyspecificity reagent, FACS + sequencing; frameworks hold sequencing errors
result_type: polyreactivity (PSR sort gate)

# biosequence, result
records = [
    ("QVQLVESGGGLVQAGCSLRLSCAASGSIFSSYAMGWYRQAPGKERELVAAITGSGGSTDYADSVKGRFTISRDNAKNTVYLQMNSLKPEDTAVYYCAARPFWPGNSYYYRYYYWGQGTQVTVSS", "low polyreactivity"),
    ("QVQLVESGGGLVQAGGSLRLSCAASGFTFPGYAMGWYRQAPGKERELVAAISYSSGSTYYADSVKGRFTISRDNAKNTVYLQMNSLKPEDTAVYYCNRVYRFRGITELDYWGQGTQVTVSS", "high polyreactivity"),
    ("QVQLVESGGGLVQAGGSLRLSCAASGSTFTLYALGWYRQAPGKERELVASITWSGSPYADSVKGRFTISRDNAKNTVYLQMNSLIPEDTAVYYCNTDPRSVVGWYDYWGQGTQVTVSS", "low polyreactivity"),
    ("QVQLVESGGGLVQAGGSLRLSCAASGSILVLNDMGWYRQAPGKERELVATITSGGNTYYADSVKGRFTISRDNAKNTVYLQMNSLKPEDTAVYYCNARWQRPYDYWGQGTQVTVSS", "low polyreactivity"),
    ("QVQLVESGGGLVQAGGSLRLSCAASGSTFYSNAMGWYRPAPGKERELVASITRGGSTNYADSVKGRFTISRDNAKNTVYLQMNSLKPEDTAVYYCNAERRYYFYRYDYWGQGTQVTVSS", "high polyreactivity"),
    ("QVQLVESGGGLVQAGGSLRLSCAASGSTFWNYAMGWYRQAPGKERELVAAISQRGGSTYYADSVKGRFTISRDNAKNTVYLQMNSLKPEDTAVYYCNIDYAGELDYWGQGTQVTVSS", "high polyreactivity"),
]

---

method_description: yeast display, Sf9 membrane polyspecificity reagent, FACS + sequencing; frameworks hold sequencing errors

# biosequence, polyreactivity (PSR sort gate)
data = [
    ("QVQLVESGGGLVQAGGSLRLSCAASGFTFAAYAMGWYRQAPGKERELVAAISWSGGSTRYADCVKGRYTISRDNAKNTVYLQKNSLIPEDTAVYYCNAVGYRVGIYSSKGDYWGQGTQVTVSS", "high polyreactivity"),
    ("QVQLVESGGGLVQAGGSLRLSSAASGSIFTYYAMGGYRQAPGKEREFVAGISWSGGRTYYADSVKARFTISRDNAKNTGYLQMNSLKPEDTAVYYCNRQYRYIPSPFDYGGQGTQVTVSS", "low polyreactivity"),
    ("QVQLVESGGGLVQAGGSLRLSCAASGNTFVFYTMGWSRQAPGKERELVAAITSSGVRTSYADSVKGRFSISRDNAKNTVYLQMNSLKPEDTAVYYCAASLRASPSFGYWGQGTQVTVSS", "high polyreactivity"),
    ("QVQLVESGGGLVQAGGSLRLRCAASGSNFYQNAMGGYRQAPGKETALLATIDVNTVSTSYADSVKGRFTISRDNAKNTVYLQMHSLKPEDTAVYYCAAGPDVGVLGDRDPWKNVKYDYWGQGTQVTASS", "low polyreactivity"),
    ("QVQLVESGGGLVQAGGSLRLSCAASGSTFDKYTMGWYRQAPGKDRELVAAISWSGGSTYASSVKGRFTMSRDNAKNTVYLQMTCLKPEDTAVYSCAARYRNYDLWLGNRRGSYYSWGQGTQVTVSS", "high polyreactivity"),
    ("QVQLVESGGGLVQAGGSLRLSCPASGITFGSYAMGWYRQAPGKERELVAAITSGGGTNYADSEKGRFTISRDNAKNTVYLHMNSLKPEDTAGYYCAARYYYLGTRYGYWGQGTQVTVSS", "low polyreactivity"),
    ("QVQLVESGGGLVEAGGSLRLSCAASGINFWVNAMGWYRQAPGKERELVAAIRSDGSTKYADSVKGRFSSSRDNAKNTVYLQMNSLKPEDTAIYYCAKRDFSYPWLRDFYYWGQGTQVTVSS", "low polyreactivity"),
    ("QVQLVESGGGLVQAGGSLRLSCAASGYTFIYYAMGWYRQAPGKERELVATISIDGSTNYADSVKGRFTISRDNAKYSVYLQMNSLKREDTAVYYCNRERYEDYDYWGQGTQVTVSS", "high polyreactivity"),
    ("QVQLVESGGGLVQAGGSLRLTCAASGFIFHRYAMGWYRQAPGKERELVAAITLNGGSTYYADSVKGRFTISRDNAKNTVYLQLNSLKPEDTAVYYCNAGWPWYVGGYYYWGQGTQVTVSS", "low polyreactivity"),
    ("QVQLVESGGGLVQAGGSLRLSCAASGITFYVYAMGWYRQAPGKERELVAAISSGSSTYYADSVKGRFTISRDNAKNTVYLQMNSLKPEDTAVYYCAARYRKYLSEYWGQGTQVTVSS", "high polyreactivity"),
    ("QVQLVESGGGLVQAGCSLRLSCAASGRTIAYNAMGWYRQAPGKERELVAAISWSGGSTYYADSVKGRFTISRDNAKNTVYLQMNSMKPEDSAVYYCAKRFGQYRYPYDYWGQGNQVTVSS", "high polyreactivity"),
    ("QVQLVESGGGLLQAGGSLRLSFAASGSIVGPYGRGWYRQAPGKERELVAAISTVGGSTYYADSVKGRFTISRDNAKNTVYLQMNSLTPEDTAGYYCAKVPRYIELSRQATHSYDYWGHGTQVTVSS", "low polyreactivity"),
    ("QVQLVESGGGLVQAGGSLRLSCAASGNIFPAYAMGWYRQAPGKERELVAAISKSGGRTYYAESVKGRFTISRDNAKNTVYLQMNSLKQEDTAVYYALLTVRRAVPYSVRYDYWGQGTQVTVSS", "high polyreactivity"),
    ("QVQLVESGGGLVQAGGSLRLSCAASGRTFKIYAMGWYRQAPGKERELVAAIRRSGGNTYYADSVKGRFTISRDNAKNTVYLQMNSLKPEDTAVYYCATRGYPGGYQRSQSMYYWGQGTQVTVSS", "high polyreactivity"),
    ("QVQLVESGGGLVQAGGSLRLSCAASGSIFSFNAMGWYRQAPGKERELVAAISWRGASTYYADSVKGRFTISRDNAKNTVYLQMNSLKPEDTAVYYCAAESTFILQYSYIYYDGHYDYWGQGTQVTVSS", "low polyreactivity"),
]

Reference source: the nanobody polyreactivity screen of Harvey et al. (2022)
